Hey, just so you know, these numbers are from patent US20240199546A1.

Reported pIC50 values for a set of compounds
Biological target: human SLC6A19 and TMEM27 (Homo sapiens, UniProt Q695T7)
Construct: expressed in transfected cells
Sequence (Q695T7 whole entry): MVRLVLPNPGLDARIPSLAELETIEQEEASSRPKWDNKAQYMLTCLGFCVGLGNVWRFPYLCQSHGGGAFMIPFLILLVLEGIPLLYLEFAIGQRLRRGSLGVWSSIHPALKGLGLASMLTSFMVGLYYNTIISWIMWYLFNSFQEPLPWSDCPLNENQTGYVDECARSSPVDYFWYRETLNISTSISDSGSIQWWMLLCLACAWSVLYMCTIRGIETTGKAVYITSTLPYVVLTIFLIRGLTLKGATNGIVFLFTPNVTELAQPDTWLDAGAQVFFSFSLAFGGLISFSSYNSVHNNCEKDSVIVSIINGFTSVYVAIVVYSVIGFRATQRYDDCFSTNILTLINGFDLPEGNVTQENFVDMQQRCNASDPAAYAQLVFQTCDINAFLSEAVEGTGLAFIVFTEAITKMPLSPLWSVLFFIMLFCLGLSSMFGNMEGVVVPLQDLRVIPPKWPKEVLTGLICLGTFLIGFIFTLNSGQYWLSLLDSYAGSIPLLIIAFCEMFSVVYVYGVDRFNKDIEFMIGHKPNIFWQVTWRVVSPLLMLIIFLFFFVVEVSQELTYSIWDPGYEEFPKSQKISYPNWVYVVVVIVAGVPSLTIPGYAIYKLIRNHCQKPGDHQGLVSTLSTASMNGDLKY
Sequence (Q9HBJ8 15-222 partner): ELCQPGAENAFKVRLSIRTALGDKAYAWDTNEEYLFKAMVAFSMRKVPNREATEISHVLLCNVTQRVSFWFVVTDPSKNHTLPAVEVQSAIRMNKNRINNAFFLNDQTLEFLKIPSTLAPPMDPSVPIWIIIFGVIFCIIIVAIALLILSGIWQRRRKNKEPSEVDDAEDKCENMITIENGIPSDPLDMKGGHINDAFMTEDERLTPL
Assay: 13C6,15N-isoleucine uptake in CHO cells with doxycycline-inducible expression of human SLC6A19 and TMEM27, RapidFire mass spectrometry (Example B-2)
Type: cell-based
Conditions: read-out: SLC6A19_RapidFire Uptake Assay IC50
Protocol: Assay ready vials of CHO cells with doxycycline inducible expression of human SLC6A19 and TMEM27 were thawed, plated in T175 flasks containing DMEM/F12 media, 10% FBS, 1% Penicillin-Streptomycin, 1× UltraGlutamate, 1 mM Sodium Pyruvate, Sodium Bicarbonate (7.5 mL of 7.5% solution in 500 mL media final), 5 μg/mL Blasticidin, 150 μg/mL Hygromycin B Gold, and 500 μg/mL G418, and incubated (humidified, 37° C. with 5% CO2) for 48 hours. […] Resuspended cells were counted using a Vi-Cell. […]
Lab note — pIC50 values are minus log10 of concentrations in M.

Provide the documented pIC50 with human SLC6A19 and TMEM27 (Homo sapiens, UniProt Q695T7) as the system for CC1(C(=O)NCc2cc3cc(Cl)c(OCc4ccco4)cc3[nH]2)CC1 7.57

Provide the documented pIC50 with human SLC6A19 and TMEM27 (Homo sapiens, UniProt Q695T7) as the system for CC1(C(=O)NCc2cc3ccc([C@@H]4C[C@H]4c4ccccc4)cc3[nH]2)CC1 (racemic) 5.87

Provide the documented pIC50 with human SLC6A19 and TMEM27 (Homo sapiens, UniProt Q695T7) as the system for Cc1cc(COc2cc3[nH]c(CNC(=O)C4CC4)cc3cc2Cl)no1 7.35

Others:
Provide the documented pIC50 with human SLC6A19 and TMEM27 (Homo sapiens, UniProt Q695T7) as the system for O=C(NCc1cc2cc(F)c(OCc3cccc(F)n3)cc2[nH]1)C1CC1 6.74

Provide the documented pIC50 with human SLC6A19 and TMEM27 (Homo sapiens, UniProt Q695T7) as the system for CC(C)C(=O)NCc1cc2cc(F)c(OCc3cocn3)cc2[nH]1 5.89
